Assay Target: Recombinant human FAP (R&D systems, #3715-SE) (human, UniProt Q12884 26-760)
Sequence (Q12884 26-760 limits assumed): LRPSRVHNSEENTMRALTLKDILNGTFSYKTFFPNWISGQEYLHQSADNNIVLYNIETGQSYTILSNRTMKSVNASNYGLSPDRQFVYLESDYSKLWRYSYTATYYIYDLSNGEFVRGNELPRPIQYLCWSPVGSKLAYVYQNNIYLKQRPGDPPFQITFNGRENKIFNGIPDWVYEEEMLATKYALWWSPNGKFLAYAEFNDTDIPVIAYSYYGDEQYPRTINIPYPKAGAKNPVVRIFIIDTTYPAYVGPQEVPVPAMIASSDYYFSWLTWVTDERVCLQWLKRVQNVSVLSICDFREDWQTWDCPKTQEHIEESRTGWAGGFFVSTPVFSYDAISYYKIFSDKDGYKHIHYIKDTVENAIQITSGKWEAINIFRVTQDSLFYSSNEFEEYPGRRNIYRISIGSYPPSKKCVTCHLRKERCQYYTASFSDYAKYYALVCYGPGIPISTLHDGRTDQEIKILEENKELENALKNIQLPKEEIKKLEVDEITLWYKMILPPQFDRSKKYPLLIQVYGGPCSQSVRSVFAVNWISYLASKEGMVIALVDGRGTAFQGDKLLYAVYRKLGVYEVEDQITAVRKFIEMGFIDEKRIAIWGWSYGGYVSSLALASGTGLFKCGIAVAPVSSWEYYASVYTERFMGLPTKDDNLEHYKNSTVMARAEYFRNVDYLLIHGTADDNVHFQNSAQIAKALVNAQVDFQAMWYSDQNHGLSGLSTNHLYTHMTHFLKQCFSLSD
Test Method Notes: cell-based or functional assay
Numbered stars: 1 amine (or outer) side, 2 acyl side, 3 side chain; on linkers, the order of the positions; unused ones are H or OH. Bridge positions count the residues as written; N and C are the ends. Square brackets hold non-standard residues; d marks the D form. Primed or numbered codes have the meaning given here. Side chains are listed from the residue outwards. * marks the point of attachment. Ttds = 1,13-diamino-4,7,10-trioxatridecan-succinamic acid, O=C(CCC(=O)[*:2])NCCCOCCOCCOCCCN[*:1]; DOTA = O=C(O)CN1CCN(CC(=O)O)CCN(CC(=O)*)CCN(CC(=O)O)CC1; mXylylene = c1cc(C[*:1])cc(C[*:2])c1; DOTA′ = not defined here; Nle = CCCC[C@H](N)C(=O)O; Apr = not defined here; Hexanoyl = CCCCCC(=O)*
// values below are reported pIC50 Category (Activity)

Reference set (2 entries):
Binder	pIC50 Category (Activity)
Hexanoyl-CPPTE([Apr-DOTA′])FCD-NH2 (linker 1-7 via mXylylene; reading uncertain; also: printed as Hex-[Cys(3MeBn)-Pro-Pro-Thr-Glu(NH-Apr-DOTA′)-Phe-Cys]-Asp-NH2) [Hex-[Cys(3MeBn)-Pro-Pro-Thr-Glu(NH-Apr-DOTA′)-Phe-Cys]-Asp-NH2]	≤ 6 pIC50
{DOTA}-[Ttds][Nle]CPPTEFCD-NH2 (linker 3-9 via mXylylene; SMILES CCCC[C@H](NC(=O)CCC(=O)NCCCOCCOCCOCCCNC(=O)CN1CCN(CC(=O)O)CCN(CC(=O)O)CCN(CC(=O)O)CC1)C(=O)N[C@H]1CSCc2cccc(c2)CSC[C@@H](C(=O)N[C@@H](CC(=O)O)C(N)=O)NC(=O)[C@H](Cc2ccccc2)NC(=O)[C@H](CCC(=O)O)NC(=O)[C@H]([C@@H](C)O)NC(=O)[C@@H]2CCCN2C(=O)[C@@H]2CCCN2C1=O, also called 3BP-3320) [DOTA-Ttds-Nle-[Cys(3MeBn)-Pro-Pro-Thr-Glu-Phe-Cys]-Asp-NH2]	> 8 pIC50

Next up:
-- ask Field request: pIC50 Category (Activity) | item: Ac-MCPPTEFCD[dH]FRD-NH2 (linker 2-8 via mXylylene; SMILES CSCC[C@H](NC(C)=O)C(=O)N[C@H]1CSCc2cccc(c2)CSC[C@@H](C(=O)N[C@@H](CC(=O)O)C(=O)N[C@H](Cc2c[nH]cn2)C(=O)N[C@@H](Cc2ccccc2)C(=O)N[C@@H](CCCNC(=N)N)C(=O)N[C@@H](CC(=O)O)C(N)=O)NC(=O)[C@H](Cc2ccccc2)NC(=O)[C@H](CCC(=O)O)NC(=O)[C@H]([C@@H](C)O)NC(=O)[C@@H]2CCCN2C(=O)[C@@H]2CCCN2C1=O, also called 3BP-3210) [Ac-Met-[Cys(3MeBn)-Pro-Pro-Thr-Glu-Phe-Cys]-Asp-his-Phe-Arg-Asp-NH2]
-- reply > 8 pIC50
